The reported numbers originate from paper PMC10958042.

B1: ATGL (PNPLA2, patatin-like phospholipase domain-containing protein 2), human, full length / CIDEC (FSP27), human (parent)
chain 1: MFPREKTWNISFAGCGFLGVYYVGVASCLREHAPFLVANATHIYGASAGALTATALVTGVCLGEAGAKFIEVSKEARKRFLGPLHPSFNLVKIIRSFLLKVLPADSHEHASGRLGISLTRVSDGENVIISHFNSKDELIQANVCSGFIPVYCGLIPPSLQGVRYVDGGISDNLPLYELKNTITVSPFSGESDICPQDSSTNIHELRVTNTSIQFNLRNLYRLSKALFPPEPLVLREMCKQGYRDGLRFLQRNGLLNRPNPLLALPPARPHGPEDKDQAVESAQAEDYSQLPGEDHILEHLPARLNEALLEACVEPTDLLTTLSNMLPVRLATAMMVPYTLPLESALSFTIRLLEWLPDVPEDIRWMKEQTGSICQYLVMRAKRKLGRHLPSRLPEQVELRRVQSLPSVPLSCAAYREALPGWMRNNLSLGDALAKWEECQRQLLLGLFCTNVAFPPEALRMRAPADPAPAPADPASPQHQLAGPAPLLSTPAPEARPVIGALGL
chain 2: MEYAMKSLSLLYPKSLSRHVSVRTSVVTQQLLSEPSPKAPRARPCRVSTADRSVRKGIMAYSLEDLLLKVRDTLMLADKPFFLVLEEDGTTVETEEYFQALAGDTVFMVLQKGQKWQPPSEQGTRHPLSLSHKPAKKIDVARVTFDLYKLNPQDFIGCLNVKATFYDTYSLSYDLHCCGAKRIMKEAFRWALFSMQATGHVLLGTSCYLQQLLDATEEGQPPKGKASSLIPTCLKILQ

Variants of: B1
methodNotes: LUMIER: Protein A-ATGL variant and firefly luciferase-partner co-expressed in HEK293T, lysates immunoprecipitated on IgG-coated plates, co-precipitated partner measured as luciferase luminescence
conditions: with CIDEC (FSP27), transient co-transfection, IgG-coated LUMITRAC plates, 2 h at 4 °C, three PBS washes, Bright-Glo luciferase reagent, triplicates per assay, two …, parent: 0.24, not graded, scale: log2 fold change of co-immunoprecipitated luminescence relative to wild-type ATGL within each experiment
Classify: label 1 when screen value is strictly less than -0.08; label 0 when screen value is not.

Examples with answers:
INSERT INTO measurements (variantnotation, cat) VALUES
  ('chain 1 K275A', 'label 1'),
  ('chain 1 R113L', 'label 0'),
  ('chain 1 Q140A', 'label 0'),
  ('chain 1 L178A', 'label 1'),
  ('chain 1 R95L', 'label 0'),
  ('chain 1 F348E', 'label 1'),
  ('chain 1 E314A', 'label 1'),
  ('chain 1 G59L', 'label 0'),
  ('chain 1 F35E', 'label 0'),
  ('chain 1 Y415A', 'label 1');

Incoming: Strictly below -0.08: is that where screen value of chain 1 A434L sits?
Outgoing: label 0

Incoming: Strictly below -0.08: is that where screen value of chain 1 G66A sits?
Outgoing: label 1
